Data origin: patent US20230302148A1

Target: human GCG receptor (human, UniProt P47871 26-477)
Sequence (P47871 26-477): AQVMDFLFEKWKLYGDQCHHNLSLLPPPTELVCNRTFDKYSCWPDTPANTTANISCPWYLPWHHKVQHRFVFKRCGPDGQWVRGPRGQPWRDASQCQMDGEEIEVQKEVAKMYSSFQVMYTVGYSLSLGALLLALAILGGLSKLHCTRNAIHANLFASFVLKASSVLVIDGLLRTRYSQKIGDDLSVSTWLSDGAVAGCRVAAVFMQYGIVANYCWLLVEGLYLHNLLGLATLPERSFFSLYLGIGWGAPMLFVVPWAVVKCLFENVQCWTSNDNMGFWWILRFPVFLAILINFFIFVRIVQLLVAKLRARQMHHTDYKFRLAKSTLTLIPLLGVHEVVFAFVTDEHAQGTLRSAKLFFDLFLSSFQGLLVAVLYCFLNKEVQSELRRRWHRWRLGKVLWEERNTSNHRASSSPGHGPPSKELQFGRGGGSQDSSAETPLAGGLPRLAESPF
Assay: cell-based or functional assay
Bridges are numbered along the chain shown (N, C = ends). Where no end group is shown, it is not given here. [ ]: non-standard residue; d: D form. Aib = CC(C)(N)C(=O)O
Hi there, I'd appreciate the recorded In vitro activity relative to native peptide (%) vs. Glucagon for every entry that follows.

[
  {
    "binder": "H[Aib]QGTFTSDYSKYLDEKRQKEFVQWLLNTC (bridge 16-20) [triple agonist of SEQ ID NO: 51]",
    "result": "2%"
  },
  {
    "binder": "H[Aib]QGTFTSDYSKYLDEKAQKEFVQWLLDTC (bridge 16-20) [triple agonist of SEQ ID NO: 30]",
    "result": "0.7%"
  },
  {
    "binder": "H[Aib]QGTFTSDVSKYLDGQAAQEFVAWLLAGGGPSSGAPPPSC [triple agonist of SEQ ID NO: 10]",
    "result": "< 0.1%"
  },
  {
    "binder": "H[Aib]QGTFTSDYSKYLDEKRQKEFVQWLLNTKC (bridge 16-20) [triple agonist of SEQ ID NO: 58]",
    "result": "2.6%"
  },
  {
    "binder": "H[Aib]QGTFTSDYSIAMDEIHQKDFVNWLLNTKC (bridge 16-20) [triple agonist of SEQ ID NO: 35]",
    "result": "< 0.1%"
  },
  {
    "binder": "Y[Aib]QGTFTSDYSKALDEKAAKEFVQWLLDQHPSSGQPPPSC (bridge 16-20) [triple agonist of SEQ ID NO: 100]",
    "result": "12.7%"
  },
  {
    "binder": "H[Aib]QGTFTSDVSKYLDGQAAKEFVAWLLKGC [triple agonist of SEQ ID NO: 7]",
    "result": "< 0.1%"
  }
]

Shifting focus to the binder that follows.
Reported In vitro activity relative to native peptide (%) vs. Glucagon for Y[Aib]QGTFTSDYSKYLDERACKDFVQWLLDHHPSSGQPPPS (bridge 16-20) [triple agonist of SEQ ID NO: 71] : what is it?
12.7%
